The origin of these recorded values is PubChem BioAssay (NCI).

- Test system: HCC-2998 colon
- assay-procedure: NCI-60 one-dose screen, 48 h
- condition-description: 10 µM unless noted
This is part of a sample that, as a whole, favours compounds with a hit. Of some 83,000 tested, about 20% had one in any assay. Active and inactive are the calls of the source. How the source made its calls: active means growth percent below 10; inactive means the rest.
Classes used: true (1) = active, false (0) = inactive

>  <compound>
CC1=C(C(=O)c2ccccc2)C(c2ccc(-n3cncn3)cc2)n2c(nc3ccccc32)N1 (centres undefined)

>  <class-name>
false (0)

$$$$
>  <compound>
CCN1C(=O)N(CC)C2NNC(Sc3c(C(=O)O)c4ccccc4n(C4CCCC4)c3=O)=NC21 (centres undefined)

>  <class-name>
false (0)

$$$$
>  <compound>
COc1cc(OC)cc(-c2cc3ccc(N(C)C)cc3c(=O)[nH]2)c1

>  <class-name>
false (0)

$$$$
>  <compound>
CN(C)CCn1c2ccccc2c2nc3ccc([N+](=O)[O-])cc3nc21

>  <class-name>
true (1)

$$$$

###

- Test system: HOP-62 NSCLC
- assay-procedure: NCI-60 one-dose screen, 48 h (100 = growth as untreated, 0 = no growth, -100 = all killed)
- condition-description: 10 µM unless noted
About 83,000 compounds went through this panel and 20% of them were active in at least one assay; those are over-represented in the sample as a whole.
Decide using growth alone. Strictly below 80%: Y. Equal to or above 80%: N.

>  <compound>
COc1ccc(-c2ccnc(SCc3cc4ccccc4[nH]c3=O)n2)cc1OC

>  <class-name>
Y

$$$$
>  <compound>
N/C(=N\c1nc2ccccc2s1)NC(=O)Nc1ccc(Cl)cc1Cl

>  <class-name>
Y

$$$$
>  <compound>
CC(C)C(C(=O)O)n1c(O)c(/C=C2/C=c3cc4c(cc3=NC2=O)OCO4)sc1=S (stereo not given)

>  <class-name>
N

$$$$
>  <compound>
CC1(C)CC[C@]2(C(=O)O)CC[C@]3(C)C(=CCC4[C@@]5(C)C[C@@H](O)[C@@H]6OC(c7cccc(Br)c7)OC[C@@]6(C)C5CC[C@]43C)C2C1 (stereo not given in full)

>  <class-name>
Y

$$$$
>  <compound>
CC(=O)Nc1cccc(Nc2nc(N[C@H]3CCCc4ccccc43)c3ccccc3n2)c1

>  <class-name>
N

$$$$
>  <compound>
COc1cc2oc(-c3cccc(C(=O)Nc4ccc(Cl)cc4)c3)cc(=O)c2c(OCC(=O)N[C@@H](Cc2ccccc2)C(=O)O)c1OC

>  <class-name>
N

$$$$
>  <compound>
CC(=O)c1c(N)c(C#N)cn1-c1ccc(Cl)cc1Cl

>  <class-name>
N

$$$$
>  <compound>
CN(C)c1ccnc(CNCCSC2(c3ccc(C(F)(F)F)cc3)c3ccccc3C=Cc3ccccc32)c1

>  <class-name>
Y

$$$$
>  <compound>
CCCCCCCCc1ccc(C(=O)Nc2ccc(C)cc2C(=O)O)cc1C

>  <class-name>
N

$$$$
>  <compound>
CC1=C(C(=O)c2ccccc2)C(c2cccc(Cl)c2Cl)n2c(nc3ccccc32)N1 (stereo not given)

>  <class-name>
Y

$$$$
>  <compound>
NS(=O)(=O)c1ccc(-n2cc(-c3cccc(NC(=O)c4cc(Cl)cc(Cl)c4)c3)nn2)cc1

>  <class-name>
Y

$$$$
>  <compound>
COc1ccc2[nH]cc(-c3nnc(N)nc3-c3cn(C)c4ncc(Br)cc34)c2c1

>  <class-name>
Y

$$$$
>  <compound>
O=C(Cn1c(/C=C/c2ccccc2)nc2ccccc2c1=O)Nc1ccccc1

>  <class-name>
Y

$$$$
>  <compound>
CC1(c2cc3cc(Cl)ccc3oc2=O)NC(=O)c2c(/C=C/C(=O)OC3CC4CCC3(C)C4(C)C)cccc2N1 (stereo not given)

>  <class-name>
Y

$$$$
>  <compound>
CC1(c2cc3cc(Br)ccc3oc2=O)NC(=O)c2c(/C=C/C(=O)OC3CC4CCC3(C)C4(C)C)cccc2N1 (stereo not given)

>  <class-name>
N

$$$$
>  <compound>
O=C(COc1ccc(NC(=O)Nc2ccc(Cl)c(Cl)c2)cc1)N=Nc1c(O)[nH]c2ccc([N+](=O)[O-])cc12

>  <class-name>
Y

$$$$
>  <compound>
N#Cc1c(-c2ccccc2Cl)cc(-c2c[nH]c3ccccc23)[nH]c1=O

>  <class-name>
Y

$$$$
>  <compound>
O=C(COc1ccc(NC(=O)Nc2ccc(Cl)cc2)cc1)N/N=C/c1ccccc1

>  <class-name>
Y

$$$$
>  <compound>
CC(C)c1sc(NC(=O)c2cc(NC(=O)c3cc(NC(=O)c4cscn4)cn3C)cn2C)nc1C(=O)NCCCN(C)C

>  <class-name>
Y

$$$$
>  <compound>
CNC(=O)c1cccc(NC(=O)c2ccc3c(c2)nnn3/C(C#N)=C/c2ccccn2)c1

>  <class-name>
N

$$$$
>  <compound>
O=C1CC(Sc2n[nH]c(-c3ccncc3)n2)C(=O)N1c1ccc(Br)cc1 (stereo not given)

>  <class-name>
N

$$$$
>  <compound>
CC(=O)Nc1ccc(-n2cnc3cc(-c4ccc(O)cc4)ccc32)cc1C(F)(F)F

>  <class-name>
Y

$$$$
>  <compound>
C=CC[N+](C)(C)CCn1c2ccccc2c2nc3cc(C)c(C)cc3nc21

>  <class-name>
N

$$$$
